Data provenance is ChEMBL document CHEMBL1914411.

- Tested on: Staphylococcus aureus
- procedure.summary: Antimicrobial activity against multidrug-resistant Staphylococcus aureus isolate 1 after 18 to 24 hrs by broth microdilution method
- Format: functional
For each entry below, report its log10 of MIC value.
Would you kindly interpret these values as log10 of MIC expressed in µM?

Query string: Could you tell me which log10 of MIC is on file for O=C(O)c1cn(C2CC2)c2cc(N3CCN(C(=O)COCc4ccccc4)CC3)c(F)cc2c1=O ?
Result string: 2.10

Query string: Could you tell me which log10 of MIC is on file for CC(C)(C)C(=O)N1CCN(c2cc3c(cc2F)c(=O)c(C(=O)O)cn3C2CC2)CC1 ?
Result string: 1.49

Query string: Could you tell me which log10 of MIC is on file for CCOC(=O)N1CCN(c2cc3c(cc2F)c(=O)c(C(=O)O)cn3C2CC2)CC1 ?
Result string: 2.10

Query string: Could you tell me which log10 of MIC is on file for CCCCCCCCCCCC(=O)OCC(=O)N1CCN(c2cc3c(cc2F)c(=O)c(C(=O)O)cn3C2CC2)CC1 ?
Result string: 2.10

Query string: Could you tell me which log10 of MIC is on file for CCCC(=O)OCC(=O)N1CCN(c2cc3c(cc2F)c(=O)c(C(=O)O)cn3C2CC2)CC1 ?
Result string: 1.19

Query string: Could you tell me which log10 of MIC is on file for O=C(O)c1cn(C2CC2)c2cc(N3CCN(C(=O)CCCCCCCCCCC(=O)N4CCN(c5cc6c(cc5F)c(=O)c(C(=O)O)cn6C5CC5)CC4)CC3)c(F)cc2c1=O ?
Result string: 2.10

Query string: Could you tell me which log10 of MIC is on file for O=C(CCCCCCCCCCCCC(=O)OCN1CCN(c2cc3c(cc2F)c(=O)c(C(=O)O)cn3C2CC2)CC1)OCN1CCN(c2cc3c(cc2F)c(=O)c(C(=O)O)cn3C2CC2)CC1 ?
Result string: 1.80

Query string: Could you tell me which log10 of MIC is on file for CCCCC(=O)N1CCN(c2cc3c(cc2F)c(=O)c(C(=O)O)cn3C2CC2)CC1 ?
Result string: 1.80

Query string: Could you tell me which log10 of MIC is on file for O=C(O)c1cn(C2CC2)c2cc(N3CCN(C(=O)CCCCCCCCCCCCC(=O)N4CCN(c5cc6c(cc5F)c(=O)c(C(=O)O)cn6C5CC5)CC4)CC3)c(F)cc2c1=O ?
Result string: 0.89

Query string: Could you tell me which log10 of MIC is on file for CCCCCCCCC(=O)OCC(=O)N1CCN(c2cc3c(cc2F)c(=O)c(C(=O)O)cn3C2CC2)CC1 ?
Result string: 0.89

Query string: Could you tell me which log10 of MIC is on file for CCCCCCC(=O)N1CCN(c2cc3c(cc2F)c(=O)c(C(=O)O)cn3C2CC2)CC1 ?
Result string: 1.80

Query string: Could you tell me which log10 of MIC is on file for CCCCCCCCCCC(=O)OCC(=O)N1CCN(c2cc3c(cc2F)c(=O)c(C(=O)O)cn3C2CC2)CC1 ?
Result string: 1.19

Query string: Could you tell me which log10 of MIC is on file for CC(C)(C)OC(=O)N1CCN(c2cc3c(cc2F)c(=O)c(C(=O)O)cn3C2CC2)CC1 ?
Result string: 1.49

Query string: Could you tell me which log10 of MIC is on file for CCCCCCCCCC(=O)OCC(=O)N1CCN(c2cc3c(cc2F)c(=O)c(C(=O)O)cn3C2CC2)CC1 ?
Result string: 0.89

Query string: Could you tell me which log10 of MIC is on file for CCCCCCCCC(=O)N1CCN(c2cc3c(cc2F)c(=O)c(C(=O)O)cn3C2CC2)CC1 ?
Result string: 1.49

Query string: Could you tell me which log10 of MIC is on file for CC(=O)OCC(=O)N1CCN(c2cc3c(cc2F)c(=O)c(C(=O)O)cn3C2CC2)CC1 ?
Result string: 2.10

Query string: Could you tell me which log10 of MIC is on file for O=C(O)c1cn(C2CC2)c2cc(N3CCNCC3)c(F)cc2c1=O ?
Result string: 1.49

Query string: Could you tell me which log10 of MIC is on file for CCC(=O)N1CCN(c2cc3c(cc2F)c(=O)c(C(=O)O)cn3C2CC2)CC1 ?
Result string: 1.80
